Biological target: Acetylcholinesterase (Homo sapiens)
Sequence (P22303 whole entry): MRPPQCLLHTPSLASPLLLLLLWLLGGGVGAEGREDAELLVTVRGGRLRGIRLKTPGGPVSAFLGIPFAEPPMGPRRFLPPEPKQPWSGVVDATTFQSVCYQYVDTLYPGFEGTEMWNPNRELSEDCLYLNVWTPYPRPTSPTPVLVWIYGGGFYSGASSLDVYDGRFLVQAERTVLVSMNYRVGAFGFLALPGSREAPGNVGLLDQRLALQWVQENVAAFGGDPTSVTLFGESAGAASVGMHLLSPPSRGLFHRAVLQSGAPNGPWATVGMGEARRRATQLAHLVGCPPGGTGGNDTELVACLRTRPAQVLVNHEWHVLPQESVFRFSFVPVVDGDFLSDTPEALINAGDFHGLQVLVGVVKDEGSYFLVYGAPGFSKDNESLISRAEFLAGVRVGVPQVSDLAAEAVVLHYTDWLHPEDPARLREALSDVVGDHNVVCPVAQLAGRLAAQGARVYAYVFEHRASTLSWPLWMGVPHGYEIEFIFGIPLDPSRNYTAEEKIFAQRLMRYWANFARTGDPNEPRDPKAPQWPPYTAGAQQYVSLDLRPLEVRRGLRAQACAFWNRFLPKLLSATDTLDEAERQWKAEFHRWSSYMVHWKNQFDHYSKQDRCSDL
ASSAY READOUT: pIC50
In simple prose, pIC50 is minus the logarithm base ten of a concentration in moles per litre.

Fill in: Acetylcholinesterase (Homo sapiens) pIC50 for COc1ccccc1/C=C/C=C(\Br)S(=O)(=O)F = 7.10

====

System: HeLa
Test: Cytotoxicity against human HeLa cells
Format: functional, cell-based
Conditions: pooled result: one value given for 5 cell lines, strains, targets or settings
ASSAY READOUT: IC50 (µM)
Give a bare numeral; the unit µM is implied.

* COc1cc(OC)c(/C=C/S(=O)(=O)Cc2ccc(OC)c(NCC(=O)O)c2)c(OC)c1 [RIGOSERTIB SODIUM] | 0.01
* O=c1oc2ccc([N+](=O)[O-])cc2cc1S(=O)(=O)Cc1ccc(F)cc1 | 18.1

# next compound below
IC50 recorded for this compound, O=c1oc2ccc(Br)cc2cc1S(=O)(=O)Cc1ccc(F)cc1 , is 29.3
